Task for the reader: assign each of the following molecules its reported GI50.
- Tested on: SNB-19
- Experiment Notes: NCI tumour cell line growth inhibition, 48 h
Active and inactive are the calls of the source. No stated cut-off is given here; in the data, active = GI50 up to about 1.1 µM and inactive = higher.

CCC(CC)NC1=C(NC(C)=O)C(=O)c2ccccc2C1=O; > 50 µM (inactive)
CSc1c(C#N)c(N)n(-c2ccc(C)cc2)c(=O)c1C#N; > 100 µM (inactive)
COc1cc(/N=C\N(C)C)c2ncccc2c1; > 100 µM (inactive)
COc1ccc2cc(CN3CCC(C4CCN(Cc5ccc6cc(OC)ccc6c5)CC4)CC3)ccc2c1; 3.2 µM (inactive)
COC(=O)CCc1cc(O)c2c(c1)C(C(=O)OC)C(c1ccc(O)c(O)c1)O2 (stereo unspecified); 11.1 µM (inactive)

Provide GI50 values for the following items, in order.
1. O=C(c1c(F)c(F)c(F)c(F)c1F)n1c(=S)n(C(=O)c2c(F)c(F)c(F)c(F)c2F)c2ccccc21
2. C[C@]1(CO)[C@H]2CC[C@@]34C=C[C@@](CO)(CC[C@H]3[C@]2(C)CC[C@H]1O)C4
3. CCN(CC)CCNc1ccc(C)c2sc3ccc(O)cc3c(=O)c12
4. Cc1ccc2oc(=O)c(-c3ccccc3)nc2c1
5. COc1cc(OC)c(-c2cc(=O)c3c(OC)c(OC)c(OC)c(OC)c3o2)cc1OC
6. CCCn1cnc2c(SCC(=O)O)nc(N)nc21

1: > 100 µM (inactive); 2: 15 µM (inactive); 3: 1.82 µM (inactive); 4: 38.9 µM (inactive); 5: > 87.7 µM (inactive); 6: > 100 µM (inactive)

---

- Tested on: HT-29
- Experiment Notes: NCI tumour cell line growth inhibition, 48 h
Activity calls are given as the source filed them. Cut-off read from the data, not from the text of the source: active = GI50 up to about 1.1 µM and inactive = higher.
Please state which outcome applies, choosing from active, inactive

CC(C)C1=CC2=C(C(=O)C1=O)C13CCCC(C)(C)C1CC2OC3=O (stereo not given); inactive
C=C1N(C)c2ccc(S(=O)(=O)c3ccc4c(c3)C(C)(C)C(=C)N4C)cc2C1(C)C; inactive
C[As](C)SCC(NC(=O)CCC(N)C(=O)O)C(=O)NCC(=O)O.c1ccncc1 (stereo not given); active

Each compound tested received a call. Report the one for CCCC(=O)OC1C(C2COC(C)(C)O2)OC2OC(C)(C)OC21 (stereo not given) .
inactive

Each compound tested received a call. Report the one for O=C(Nc1nc2ncn(CCO)c2c(=O)[nH]1)c1ccccc1 .
inactive

---

- Test system: HOP-92
- Experiment Notes: NCI tumour cell line growth inhibition, 48 h
Activity calls are given as the source filed them. Rule as the data show it: active = GI50 up to about 1.1 µM and inactive = higher.
Please state which outcome applies, choosing from YES = active, NO = inactive

CC(CO)(CO)N1C(=O)C2C3C=CC(C3)C2C1=O (stereo not given); NO
CCc1c(-c2coc(CC/C(C)=C/c3ccccc3)n2)oc(OC)c(C)c1=O; NO
COc1ccc(C(c2ccc(C(C)C)cc(=O)c2O)c2c(O)cc3oc(-c4ccccc4)cc(=O)c3c2O)cc1 (stereo not given); YES
CC(=O)OC(C)C(=O)C1c2cccc(O)c2C(=O)c2c(O)cc(C)cc21 (stereo not given); YES
C1CSCCSCCCSCCSCCCSCCSCCCSCCSC1; NO
CNC(=O)[C@H](Cc1ccccc1)NC(=O)N(CCC#N)CCN(C(=O)N[C@@H](Cc1ccccc1)C(=O)OC)c1ccccc1; NO
Cc1cc(O)nc(NNC(C#N)c2ccc(O)cc2)n1 (stereo not given); NO
COc1cc(/N=C\N(C)C)c2ncccc2c1; NO

Each compound tested received a call. Report the one for CC(C)(O)/C=C/C(=O)[C@](C)(O)[C@H]1[C@H](O)C[C@@]2(C)[C@@H]3CC=C4[C@@H](C[C@H](O)C(=O)C4(C)C)[C@]3(C)C(=O)C[C@]12C .
YES

Each compound tested received a call. Report the one for COc1ccc(CCN2C(=O)C(=O)C(C(=O)c3ccccc3)C2c2ccccc2)cc1OC (stereo not given) .
NO
